Molecular target: T1, c-Met ECD-Fc (cynomologus) (cynomologus, UniProt A0A2K5UM36 25-932)
T1 construct: also called cynomologus c-Met ECD-Fc
T1 sequence (A0A2K5UM36 entry or part of it limits assumed): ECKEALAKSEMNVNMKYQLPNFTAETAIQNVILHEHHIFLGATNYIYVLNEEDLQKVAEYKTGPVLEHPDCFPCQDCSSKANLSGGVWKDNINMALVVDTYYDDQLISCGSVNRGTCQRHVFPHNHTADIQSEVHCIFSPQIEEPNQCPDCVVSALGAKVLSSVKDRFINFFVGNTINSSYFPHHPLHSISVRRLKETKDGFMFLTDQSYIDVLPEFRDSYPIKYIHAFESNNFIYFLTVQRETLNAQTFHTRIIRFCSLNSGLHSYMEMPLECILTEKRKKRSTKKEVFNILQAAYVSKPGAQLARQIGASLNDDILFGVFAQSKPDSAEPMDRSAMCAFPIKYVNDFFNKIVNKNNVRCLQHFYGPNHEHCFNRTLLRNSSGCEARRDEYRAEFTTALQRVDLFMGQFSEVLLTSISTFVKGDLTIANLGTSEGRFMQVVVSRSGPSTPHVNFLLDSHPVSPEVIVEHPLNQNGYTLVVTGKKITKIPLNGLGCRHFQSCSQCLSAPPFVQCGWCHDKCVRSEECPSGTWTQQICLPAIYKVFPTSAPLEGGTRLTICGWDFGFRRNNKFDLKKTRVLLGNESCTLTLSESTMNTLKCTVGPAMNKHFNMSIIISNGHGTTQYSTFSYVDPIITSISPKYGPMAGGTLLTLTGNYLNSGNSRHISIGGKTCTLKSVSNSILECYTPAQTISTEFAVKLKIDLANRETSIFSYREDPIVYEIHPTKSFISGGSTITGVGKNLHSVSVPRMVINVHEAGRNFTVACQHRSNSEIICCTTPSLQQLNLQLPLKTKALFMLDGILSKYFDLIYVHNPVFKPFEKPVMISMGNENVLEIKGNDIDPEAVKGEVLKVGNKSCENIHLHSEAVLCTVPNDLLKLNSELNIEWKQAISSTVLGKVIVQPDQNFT
Assay: SPR (BIACORE 3000), cynomologus c-Met ECD-Fc immobilized, antibody injected, 1:1 model
outcome_measure: Kd (nM)
Give the quantity in nM, number only.

Ask | Note Kd for the binder shown: anti-c-Met monoclonal antibody 8.90.3 (antibody, V domains shown, Human IgG2 kappa) VH: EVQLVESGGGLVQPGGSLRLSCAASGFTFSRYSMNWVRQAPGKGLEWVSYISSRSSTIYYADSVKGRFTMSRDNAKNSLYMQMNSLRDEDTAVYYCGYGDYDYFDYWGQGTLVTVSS VL: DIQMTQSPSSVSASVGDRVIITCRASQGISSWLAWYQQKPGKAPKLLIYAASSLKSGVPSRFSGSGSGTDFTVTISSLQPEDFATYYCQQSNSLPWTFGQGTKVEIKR
Reply | 1.22

Ask | Note Kd for the binder shown: anti-c-Met monoclonal antibody 9.1.2 (antibody, V domains shown, Human IgG2 kappa; also called hybridoma 9.1.2 (LN 15884); PTA-5027) VH: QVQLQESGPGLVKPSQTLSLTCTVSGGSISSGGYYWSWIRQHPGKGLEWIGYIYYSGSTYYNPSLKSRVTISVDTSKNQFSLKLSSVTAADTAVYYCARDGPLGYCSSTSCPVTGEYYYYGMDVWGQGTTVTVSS VL: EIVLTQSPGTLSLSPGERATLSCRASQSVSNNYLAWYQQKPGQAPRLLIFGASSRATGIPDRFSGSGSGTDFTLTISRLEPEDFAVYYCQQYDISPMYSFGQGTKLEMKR
Reply | 1.1
